Origin of measurements: paper PMC6120918

Molecular target: DNA gyrase (Staphylococcus aureus, UniProt P0A0K8+P20831)
Construct: gene gyrA; recombinant DNA gyrase (A and B subunits; supercoiling assay kit); with DNA gyrase subunits A and B together (holoenzyme; target subunit not determined)
Sequence (P20831 whole entry): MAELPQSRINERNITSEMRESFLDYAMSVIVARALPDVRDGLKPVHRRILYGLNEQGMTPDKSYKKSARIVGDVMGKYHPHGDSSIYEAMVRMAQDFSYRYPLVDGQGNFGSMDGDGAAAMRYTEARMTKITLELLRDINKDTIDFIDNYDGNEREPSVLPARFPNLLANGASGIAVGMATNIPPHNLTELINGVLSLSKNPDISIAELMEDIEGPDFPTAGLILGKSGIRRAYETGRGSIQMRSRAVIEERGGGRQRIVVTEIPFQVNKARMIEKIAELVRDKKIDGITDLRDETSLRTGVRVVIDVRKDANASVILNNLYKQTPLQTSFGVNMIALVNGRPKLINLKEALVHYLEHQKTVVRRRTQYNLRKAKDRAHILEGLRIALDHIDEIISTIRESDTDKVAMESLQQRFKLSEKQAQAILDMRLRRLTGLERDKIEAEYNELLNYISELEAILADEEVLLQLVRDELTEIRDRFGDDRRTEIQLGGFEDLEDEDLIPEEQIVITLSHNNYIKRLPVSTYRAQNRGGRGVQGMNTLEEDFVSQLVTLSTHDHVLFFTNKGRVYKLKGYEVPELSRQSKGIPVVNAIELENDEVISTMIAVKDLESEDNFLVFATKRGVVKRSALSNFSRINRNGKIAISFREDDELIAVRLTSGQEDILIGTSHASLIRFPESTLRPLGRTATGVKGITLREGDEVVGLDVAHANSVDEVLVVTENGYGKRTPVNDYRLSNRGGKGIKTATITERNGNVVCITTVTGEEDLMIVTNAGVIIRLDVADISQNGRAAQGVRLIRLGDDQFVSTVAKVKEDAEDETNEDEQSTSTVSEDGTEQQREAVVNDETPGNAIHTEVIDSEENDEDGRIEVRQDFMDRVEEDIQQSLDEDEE
Sequence (P0A0K8 2-644): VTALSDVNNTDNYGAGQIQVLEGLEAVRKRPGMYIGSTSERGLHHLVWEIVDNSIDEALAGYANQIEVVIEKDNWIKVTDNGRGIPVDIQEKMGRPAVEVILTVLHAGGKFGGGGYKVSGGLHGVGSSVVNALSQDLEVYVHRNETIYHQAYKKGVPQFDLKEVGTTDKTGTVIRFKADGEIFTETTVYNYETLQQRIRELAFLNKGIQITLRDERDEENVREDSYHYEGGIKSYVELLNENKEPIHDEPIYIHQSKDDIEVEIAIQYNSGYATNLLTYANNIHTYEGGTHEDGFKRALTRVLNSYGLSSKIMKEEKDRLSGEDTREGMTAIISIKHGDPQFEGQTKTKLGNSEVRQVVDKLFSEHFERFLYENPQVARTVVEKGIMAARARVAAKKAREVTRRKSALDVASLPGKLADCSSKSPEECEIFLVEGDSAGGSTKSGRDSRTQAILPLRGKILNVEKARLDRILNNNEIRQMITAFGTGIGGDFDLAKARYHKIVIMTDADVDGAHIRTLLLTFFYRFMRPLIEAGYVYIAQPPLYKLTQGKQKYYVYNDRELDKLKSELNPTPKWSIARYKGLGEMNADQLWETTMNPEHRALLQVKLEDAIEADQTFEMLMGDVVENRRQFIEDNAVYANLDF
Assay: gyrase supercoiling assay of relaxed pBR322, agarose gel
Assay type: biochemical
Assay Readout: pIC50
Convention used: pIC50 is expressed as -log10 of the molar concentration.

Inquiry: Specify pIC50 for O=C(NCCSSCCNC(=O)/C(Cc1c[nH]c2ccc(Br)cc12)=N/O)/C(Cc1c[nH]c2ccc(Br)cc12)=N/O , system DNA gyrase (Staphylococcus aureus, UniProt P0A0K8+P20831).
Reply text: 4.69
